Biological target: 5-hydroxytryptamine receptor 4 (Homo sapiens)
Sequence (Q13639 whole entry): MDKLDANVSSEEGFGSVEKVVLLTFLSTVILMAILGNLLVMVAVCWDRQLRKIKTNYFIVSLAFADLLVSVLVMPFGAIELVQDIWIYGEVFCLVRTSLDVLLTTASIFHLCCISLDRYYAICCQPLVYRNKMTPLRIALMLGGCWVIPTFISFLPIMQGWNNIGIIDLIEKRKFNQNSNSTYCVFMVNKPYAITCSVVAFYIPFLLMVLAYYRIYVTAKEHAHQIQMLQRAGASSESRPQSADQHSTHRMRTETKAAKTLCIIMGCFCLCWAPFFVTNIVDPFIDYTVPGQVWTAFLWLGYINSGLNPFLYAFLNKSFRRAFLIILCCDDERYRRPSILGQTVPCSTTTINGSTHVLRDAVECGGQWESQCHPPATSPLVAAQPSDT
Experiment: Antagonist activity at Rluc-tagged human 5HT4R expressed in human SH-SY5Y cells assessed as inhibition of serotonin-induced receptor/Gbeta1 coupling by BRET assay
Assay type: cell-based
ENDPOINT_NAME: pIC50
Entry type: numeric. Quantity: pIC50, the -log10 of concentration in molar units.

Some entries whose results are on file:
1. COc1cc(C(=O)OCCCN2CCCCC2)c2ccccc2n1: 6.69
2. COc1cc2c3c(cccc3n1)CN(CCCN1CCCCC1)C2=O: 6.04
3. COc1cc2c3c(cccc3n1)C(=O)N(CCCN1CCCCC1)C2=O: 6.96

Turning now to a further record.
Task: Using the record for O=C1c2cccc3nc(Cl)cc(c23)C(=O)N1CCCN1CCCCC1 , report its pIC50.
Result: 6.34

Source listed as ChEMBL document CHEMBL3286104.
